molecular target: Liver X receptor (Homo sapiens) (UniProt Q13133+P55055); assay: Modulation of LXR in human myotubes assessed as decrease of T0901317-induced SCD1 mRNA expression at 10 uM after 4 days by qPCR analysis
Active and inactive are the calls of the source. The rule behind the calls is not given here.
Measure Name: Activity

CC(C)CC[C@H](O)[C@@H](C)COCc1ccc(S(=O)(=O)N(COCC[Si](C)(C)C)COCC[Si](C)(C)C)cc1; Active
CC(C)CC[C@H](O)[C@@H](C)COCc1ccc(S(=O)(=O)N(C)C2CCCCC2)cc1; inactive
CCCCCCN(CCCCCC)S(=O)(=O)c1ccc(COC[C@H](C)[C@@H](O)CCC(C)C)cc1; inactive
COc1ccc2cc(COC[C@H](C)[C@@H](O)CCC(C)C)ccc2c1; Active

---

molecular target: Liver X receptor (Homo sapiens) (UniProt Q13133+P55055); test: Modulation of LXR in human HepG2 cells assessed as decrease of T0901317-induced SCD1 mRNA expression at 10 uM after 4 days by qPCR analysis; format: cell-based
The source made the active and inactive calls. No cut-off for these calls is given here.
Measure Name: Activity

CC(C)CC[C@H](O)[C@@H](C)COCc1ccc(S(=O)(=O)N(COCC[Si](C)(C)C)COCC[Si](C)(C)C)cc1; Active
CC(C)CC[C@H](O)[C@@H](C)COCc1ccc(S(=O)(=O)N(C)C2CCCCC2)cc1; inactive
CCCCCCN(CCCCCC)S(=O)(=O)c1ccc(COC[C@H](C)[C@@H](O)CCC(C)C)cc1; inactive
COc1ccc2cc(COC[C@H](C)[C@@H](O)CCC(C)C)ccc2c1; Active
